Values compiled from patent US10294227B2.

Target: CYP2C19 (Homo sapiens (Human))
Sequence (P33261 whole entry): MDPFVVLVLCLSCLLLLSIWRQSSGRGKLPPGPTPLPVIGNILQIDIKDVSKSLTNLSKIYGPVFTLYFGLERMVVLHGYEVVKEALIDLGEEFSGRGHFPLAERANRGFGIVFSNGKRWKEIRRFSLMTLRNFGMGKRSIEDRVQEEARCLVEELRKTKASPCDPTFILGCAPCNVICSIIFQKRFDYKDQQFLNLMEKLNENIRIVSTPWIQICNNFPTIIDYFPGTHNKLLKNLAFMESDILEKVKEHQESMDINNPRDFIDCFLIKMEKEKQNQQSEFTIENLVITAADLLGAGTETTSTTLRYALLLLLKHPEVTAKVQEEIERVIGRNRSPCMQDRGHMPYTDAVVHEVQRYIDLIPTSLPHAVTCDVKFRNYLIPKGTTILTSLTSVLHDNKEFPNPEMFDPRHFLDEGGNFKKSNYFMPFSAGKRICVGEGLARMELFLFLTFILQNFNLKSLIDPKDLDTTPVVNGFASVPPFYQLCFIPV
Test: CYP P450 inhibition
Listed here: items and their measured inhibition at 10 µM.
quantityKind: inhibition at 10 µM (%)

[[record]]
inputsmiles = "COc1cc(-c2nn(CCN3CCC(N(C)C)CC3)c3ncnc(N)c23)ccc1NCc1ccccc1"
assayvalue = 26.8

[[record]]
inputsmiles = "COc1cc(-c2nn(CCN3CCC(N4CCCCC4)CC3)c3ncnc(N)c23)ccc1NC(=O)OC(C)(C)C"
assayvalue = -3.1

[[record]]
inputsmiles = "COc1cc(-c2nn(CCN3CCC(N(C)C)CC3)c3ncnc(N)c23)ccc1CC(=O)OC(C)(C)C"
assayvalue = -0.4

[[record]]
inputsmiles = "COc1cc(-c2nn(CCN3CCC(N(C)C)CC3)c3ncnc(N)c23)ccc1NC(=O)OC(C)(C)C"
assayvalue = -5.4

[[record]]
inputsmiles = "COc1cc(-c2nn(CCN3CCC(N4CCCC4)CC3)c3ncnc(N)c23)ccc1NC(=O)OC(C)(C)C"
assayvalue = -6.5


----------
Listed here: items and their measured inhibition at 10 µM.
Molecular target: CYP3A4 (Homo sapiens (Human))
Sequence (P08684 whole entry): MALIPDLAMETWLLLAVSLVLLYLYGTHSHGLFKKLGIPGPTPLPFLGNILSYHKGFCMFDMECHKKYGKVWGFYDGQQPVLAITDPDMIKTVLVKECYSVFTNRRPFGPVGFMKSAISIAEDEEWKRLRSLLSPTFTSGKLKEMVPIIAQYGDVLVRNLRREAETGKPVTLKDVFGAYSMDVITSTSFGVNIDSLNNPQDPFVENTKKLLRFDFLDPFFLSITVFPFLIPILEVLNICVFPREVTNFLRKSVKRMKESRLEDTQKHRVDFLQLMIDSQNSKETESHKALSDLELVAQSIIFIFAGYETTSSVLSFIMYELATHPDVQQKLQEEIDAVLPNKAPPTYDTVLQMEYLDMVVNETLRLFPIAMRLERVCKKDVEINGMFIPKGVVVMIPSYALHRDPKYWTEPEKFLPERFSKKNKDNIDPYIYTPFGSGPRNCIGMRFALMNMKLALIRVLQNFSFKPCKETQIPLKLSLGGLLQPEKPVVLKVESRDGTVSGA
Test: CYP P450 inhibition
quantityKind: inhibition at 10 µM

[[record]]
inputsmiles = "COc1cc(-c2nn(CCN3CCC(N4CCCCC4)CC3)c3ncnc(N)c23)ccc1NC(=O)OC(C)(C)C"
testedtarget = "CYP3A4 (Homo sapiens (Human))"
assayvalue = "-12.1%"

[[record]]
inputsmiles = "COc1cc(-c2nn(CCN3CCC(N(C)C)CC3)c3ncnc(N)c23)ccc1NCc1ccccc1"
testedtarget = "CYP3A4 (Homo sapiens (Human))"
assayvalue = "3.1%"

[[record]]
inputsmiles = "COc1cc(-c2nn(CCN3CCC(N(C)C)CC3)c3ncnc(N)c23)ccc1NC(=O)OC(C)(C)C"
testedtarget = "CYP3A4 (Homo sapiens (Human))"
assayvalue = "-74.6%"

[[record]]
inputsmiles = "COc1cc(-c2nn(CCN3CCC(N4CCCC4)CC3)c3ncnc(N)c23)ccc1NC(=O)OC(C)(C)C"
testedtarget = "CYP3A4 (Homo sapiens (Human))"
assayvalue = "-29.8%"

[[record]]
inputsmiles = "COc1cc(-c2nn(CCN3CCC(N(C)C)CC3)c3ncnc(N)c23)ccc1CC(=O)OC(C)(C)C"
testedtarget = "CYP3A4 (Homo sapiens (Human))"
assayvalue = "5.7%"


----------
Biological target: HCK (Homo sapiens (Human), UniProt P08631)
Sequence (P08631 whole entry): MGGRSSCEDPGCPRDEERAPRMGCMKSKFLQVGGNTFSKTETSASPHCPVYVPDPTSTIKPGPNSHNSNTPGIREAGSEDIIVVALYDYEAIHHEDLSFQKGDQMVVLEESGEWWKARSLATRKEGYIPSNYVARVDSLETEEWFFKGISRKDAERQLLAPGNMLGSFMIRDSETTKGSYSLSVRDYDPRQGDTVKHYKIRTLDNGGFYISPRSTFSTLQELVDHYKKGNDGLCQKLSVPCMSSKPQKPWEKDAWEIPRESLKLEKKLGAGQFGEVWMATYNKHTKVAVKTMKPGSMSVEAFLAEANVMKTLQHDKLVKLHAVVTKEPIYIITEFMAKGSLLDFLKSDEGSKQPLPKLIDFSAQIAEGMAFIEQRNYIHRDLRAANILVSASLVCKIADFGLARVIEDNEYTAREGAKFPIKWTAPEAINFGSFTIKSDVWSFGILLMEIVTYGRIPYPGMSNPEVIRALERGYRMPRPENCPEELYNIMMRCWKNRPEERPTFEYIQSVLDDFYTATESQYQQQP
Test: Kinase screening assay (IC50)
Settings: read-out: Kinase Screening (IC50) HCK; Src Family
pIC50: −log10 of the molar value.
Listed here: items and their measured pIC50.
quantityKind: pIC50

[[record]]
inputsmiles = "COc1cc(-c2nn(CCN3CCC(N(C)C)CC3)c3ncnc(N)c23)ccc1NCc1ccccc1"
testedtarget = "HCK (Homo sapiens (Human), UniProt P08631)"
quantitykind = "pIC50"
assayvalue = "> 8.00"

[[record]]
inputsmiles = "COc1cc(-c2nn(CCN3CCC(N4CCCC4)CC3)c3ncnc(N)c23)ccc1NC(=O)OC(C)(C)C"
testedtarget = "HCK (Homo sapiens (Human), UniProt P08631)"
quantitykind = "pIC50"
assayvalue = "> 8.00"

[[record]]
inputsmiles = "COc1cc(-c2nn(CCN3CCC(N4CCCCC4)CC3)c3ncnc(N)c23)ccc1NC(=O)OC(C)(C)C"
testedtarget = "HCK (Homo sapiens (Human), UniProt P08631)"
quantitykind = "pIC50"
assayvalue = "> 8.00"

